Target: T1, recombinant human regenerating islet-derived protein 1α (REG1A) (human, UniProt P05451 23-166, limits assumed)
T1 construct: also called recombinant human REG1A; recombinant REG1A
T1 sequence (looked up): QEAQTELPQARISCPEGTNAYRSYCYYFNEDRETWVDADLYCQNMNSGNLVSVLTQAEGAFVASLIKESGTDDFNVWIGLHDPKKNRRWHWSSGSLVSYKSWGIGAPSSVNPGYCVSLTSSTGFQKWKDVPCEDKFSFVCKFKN
Test: sandwich ELISA; capture 4H8F1; REG1A 33.33 ng/mL
Kindly state OD value for each of the entries shown.
Numbers only; they are read as OD.

Problem: Field request: OD value | item: antibody 21B11D2 (antibody, mouse IgG2b, kappa, V domains shown, Mouse monoclonal from hybridoma, stated mouse IgG1/Kappa; Used unlabelled as capture and biotin-labelled as detection antibody; also called 21B11D2-biotin) VH: QAQLQQSGAELVRPGASVTLSCKASGYIFTDYEMHWVKQTPVHGLEWIGAIDPETGGTAYNQKFKGKARLTADKSSSTAYMELRSLTSEDSAVYYCTIYYTNHFDYWGQGTTLTVSS VL: DVVMTQTPLSLPVSLGDQASISCRSSQSLVYSNGDTYLYWYLQKPGQSPKLLIYKVSNRFSGVPDRFSGSGSGTDFTLKISRVEAEDLGVYFCSQSTHVPLTFGAGTKLELKR
Result: 0.073

Problem: Field request: OD value | item: antibody 4H8F1 (antibody, V domains shown, Mouse monoclonal from hybridoma, stated mouse IgG1/Kappa; also called 4H8F1-biotin; Antibody 1) VH: QVTLKESGPGILQPSQTLSLTCSFSGFSLSTSGMSVGWIRQPSGKGLEWLAHIWWNDDKFYNPALKSRLTISKDTSKNQIFLKIASVVTADSATYYCARIEEGWFAYWGQGTLVTVST VL: SIVMTQTPKFLLVSVGDRVTITCKASQTMSNDVAWYQQKPGQSPKLLIYYASNRYTGVPDRFTGSGYGTDFTFTISTVQAEDLAVYFCQQDYSSPLTFGAGTKLELKR
Result: 0.081

Problem: Field request: OD value | item: antibody 11D11B11 (antibody, mouse IgG2a, kappa, V domains shown, Mouse monoclonal from hybridoma, stated mouse IgG1/Kappa; Used unlabelled as capture and biotin-labelled as detection antibody; also called 11D11B11-biotin) VH: DVKLVESGGGLVKPGGSLKLSCAASGFTFSSFSMSWFRQTPDKRLEWVATISSGGSSTYYPDSVKGRFTISRDNAKNTLYLQMTSLKSEDTAIFYCRGGYYGNYDPLDYWGQGTSVTVSA VL: DIVMIQSQKFMSTSVGDRVSITCTASHNVDSNVAWYQQKPGQSPQALIYSASYRYSGVPDRFTGSGSGTDFTLTINNVQSEDLAEYFCQQYNSYPLTFGGGTRLEIKR
Result: 4.22

Problem: Field request: OD value | item: antibody 12F12A10 (antibody, V domains shown, Mouse monoclonal from hybridoma, stated mouse IgG1/Kappa; also called 12F12A10-biotin; Antibody 2) VH: QVQLQQSATELARPGASVKMSCKASGYTFTSYMMHWVKQRPGQGLEWIGYINPSSGYTDYNQKFKDKTTLTADKSSSTAYMQLSSLTSEDSAVYYCARYRYPHYFDYWGQGTTLTVSS VL: QIVLTQSPAIMSASPGEKVTMTCSASSSVSYIHWYQQKSGTSPKRWIYDTSKLASGVPARFSGSGSGTSYSLTISSMEAEDAAIYYCQQWSSNPPTFGAGTKLELKR
Result: 4.33
